Cited source: patent EP0168309A1

# Tested on: souris
# Run description: Acute toxicity, oral administration in mice (DL0)
# Assay type: in vivo
# Run parameters: maximal dose causing no mortality in 8 days, mouse
Metric: DL0

1. COc1ccc2c(c1)ncc1c(=O)n(-c3ccccc3)oc12
≥ 200 mg/kg
2. O=c1c2cnc3ccccc3c2on1-c1ccccc1
≥ 400 mg/kg
3. O=c1c2cnc3ccc(F)cc3c2on1-c1ccccc1
≥ 400 mg/kg
4. O=c1c2cnc3ccc(Cl)cc3c2on1-c1ccccc1
≥ 100 mg/kg
5. COc1ccc2ncc3c(=O)n(-c4ccccc4)oc3c2c1
200 mg/kg
6. O=c1c2cnc3ccc(C(F)(F)F)cc3c2on1-c1ccccc1
≥ 200 mg/kg
